Reference source: ChEMBL document CHEMBL5291721

# Melanocortin receptor 4 (Homo sapiens, UniProt P32245): AC50 values follow; further: assay procedure not described here
# Sequence (P32245 whole entry): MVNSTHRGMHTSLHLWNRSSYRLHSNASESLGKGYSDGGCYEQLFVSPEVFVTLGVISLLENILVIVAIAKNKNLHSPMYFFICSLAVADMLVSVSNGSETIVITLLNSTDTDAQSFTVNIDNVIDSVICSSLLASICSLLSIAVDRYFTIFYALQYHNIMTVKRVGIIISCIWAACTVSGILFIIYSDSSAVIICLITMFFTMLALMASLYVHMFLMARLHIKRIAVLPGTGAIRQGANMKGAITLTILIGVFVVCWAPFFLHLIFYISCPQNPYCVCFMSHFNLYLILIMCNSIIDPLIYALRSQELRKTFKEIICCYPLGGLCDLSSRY
Measured Quantity: AC50

- Compound: "CC[C@@H]1C(=O)OC[C@@H]1Cc1cncn1C"
  Result: "> 30 µM"
- Compound: "CN1C(=O)OC(C)(C)C1=O"
  Result: "> 10 µM"
- Compound: "CN1C(=O)CCS(=O)(=O)C1c1ccc(Cl)cc1 (stereo not drawn)"
  Result: "> 10 µM"
- Compound: "CO[C@@H]1[C@@H](O[C@@H]2O[C@H](C)[C@@H](O[C@H]3C[C@@](C)(O)[C@@H](OC(=O)CC(C)C)[C@H](C)O3)[C@H](N(C)C)[C@H]2O)[C@@H](CC=O)C[C@@H](C)[C@@H](O)/C=C/C=C/C[C@@H](C)OC(=O)C[C@H]1OC(C)=O"
  Result: "> 10 µM"
- Compound: "O=C(O)C1=C(CSc2nnnn2CS(=O)(=O)O)CS[C@@H]2[C@H](NC(=O)[C@H](O)c3ccccc3)C(=O)N12"
  Result: "> 30 µM"
- Compound: "O=C(O)[C@H](CC(=O)N1C[C@H]2CCCC[C@H]2C1)Cc1ccccc1 [MITIGLINIDE]"
  Result: "> 10 µM"
- Compound: "CN1C(=O)C(O)N=C(c2ccccc2)c2cc(Cl)ccc21 (stereo not drawn)"
  Result: "> 30 µM"
- Compound: "CCCCCNC(=N)N/N=C/c1c[nH]c2ccc(OC)cc12"
  Result: "5.34 µM"
